- MEASUREMENT_PROTOCOL: Antioxidant scavenging activity against 2,2'-azobis-amidinopropane-induced peroxyl radicals assessed as total oxyradical scavenging capacity relative to Trolox
- Assay type: physicochemical
METRIC: Activity

Here are 3 molecules together with their reported answers.
Could you share which Activity value was measured for O=c1c(O)c(-c2ccc(O)c(O)c2)oc2cc(O)cc(O)c12 [QUERCETIN] ?
7.17

Same question, COc1ccc(-c2oc3cc(OC)c(OC)c(O)c3c(=O)c2OC)cc1OC [ARTEMETIN] this time
0.28

Same question, `COc1cc(-c2cc(=O)c3c(O)c(O)c(OC)c(OC)c3o2)ccc1O` this time
1.52

I: COc1cc(-c2cc(=O)c3c(O)c(OC)c(OC)c(OC)c3o2)ccc1O
II: C[C@@H]1O[C@@H](OC[C@H]2O[C@@H](Oc3c(-c4ccc(O)c(O)c4)oc4cc(O)cc(O)c4c3=O)[C@H](O)[C@@H](O)[C@@H]2O)[C@H](O)[C@H](O)[C@H]1O [RUTIN]
Compare I and II and name the one whose reported Activity is smaller. To answer, give the label that identifies your chosen option.
I
(I: 0.81, II: 5.15)

Data credit: ChEMBL document CHEMBL1155689
